# assay-remarks: activity coefficient (dimensionless); of the first substance listed, at infinite dilution; xn = mol fraction of the nth substance listed
# setup-conditions: 328.15 K; 101 kPa; Liquid; Chromatography; x1 = 0
recorded-endpoint: activity coefficient
Returns: the value as a bare number; no unit string appended.

Consider the reported activity coefficient for these compounds:
INSERT INTO measurements (compound, measured) VALUES
  ('CCCCCC [hexane] + C[N+]1(CCCO)CCOCC1.O=S(=O)([N-]S(=O)(=O)C(F)(F)F)C(F)(F)F', 122),
  ('C#CCCCCC [1-heptyne] + C[N+]1(CCCO)CCOCC1.O=S(=O)([N-]S(=O)(=O)C(F)(F)F)C(F)(F)F', 19.2),
  ('CCC[N+](=O)[O-] [1-nitropropane] + C[N+]1(CCCO)CCOCC1.O=S(=O)([N-]S(=O)(=O)C(F)(F)F)C(F)(F)F', 1.26);

Q: What value of measured activity coefficient is listed for CCOC(C)(C)C [2-ethoxy-2-methylpropane] + C[N+]1(CCCO)CCOCC1.O=S(=O)([N-]S(=O)(=O)C(F)(F)F)C(F)(F)F ?
A: 15.8

Q: What value of measured activity coefficient is listed for CCCO [propan-1-ol] + C[N+]1(CCCO)CCOCC1.O=S(=O)([N-]S(=O)(=O)C(F)(F)F)C(F)(F)F ?
A: 2.01

Q: What value of measured activity coefficient is listed for CC1CCCCC1 [methylcyclohexane] + C[N+]1(CCCO)CCOCC1.O=S(=O)([N-]S(=O)(=O)C(F)(F)F)C(F)(F)F ?
A: 84.7

====

# assay-remarks: activity coefficient (dimensionless); of the first substance listed, at infinite dilution; xn = mol fraction of the nth substance listed
# setup-conditions: 368.15 K; 101 kPa; Liquid; Chromatography; x1 = 0
Param threshold (7) applies to activity coefficient; output Condition met when value >= threshold, Condition not met when value < threshold.

INSERT INTO results (compound, category) VALUES
  ('c1ccsc1 [thiophene] + C[N+]1(CCCO)CCOCC1.O=S(=O)([N-]S(=O)(=O)C(F)(F)F)C(F)(F)F', 'Condition not met'),
  ('C1CCCCC1 [cyclohexane] + C[N+]1(CCCO)CCOCC1.O=S(=O)([N-]S(=O)(=O)C(F)(F)F)C(F)(F)F', 'Condition met'),
  ('C=Cc1ccccc1 [styrene] + C[N+]1(CCCO)CCOCC1.O=S(=O)([N-]S(=O)(=O)C(F)(F)F)C(F)(F)F', 'Condition not met');

Q: Given the entry CC(C)O [propan-2-ol] + C[N+]1(CCCO)CCOCC1.O=S(=O)([N-]S(=O)(=O)C(F)(F)F)C(F)(F)F , answer whether its activity coefficient meets or surpasses 7.
A: Condition not met

Q: Given the entry CCO [ethanol] + C[N+]1(CCCO)CCOCC1.O=S(=O)([N-]S(=O)(=O)C(F)(F)F)C(F)(F)F , answer whether its activity coefficient meets or surpasses 7.
A: Condition not met

Q: Given the entry CCCC(C)=O [pentan-2-one] + C[N+]1(CCCO)CCOCC1.O=S(=O)([N-]S(=O)(=O)C(F)(F)F)C(F)(F)F , answer whether its activity coefficient meets or surpasses 7.
A: Condition not met

Q: Given the entry CCCCCCCC [octane] + C[N+]1(CCCO)CCOCC1.O=S(=O)([N-]S(=O)(=O)C(F)(F)F)C(F)(F)F , answer whether its activity coefficient meets or surpasses 7.
A: Condition met

Q: Given the entry CC(C)=O [acetone] + C[N+]1(CCCO)CCOCC1.O=S(=O)([N-]S(=O)(=O)C(F)(F)F)C(F)(F)F , answer whether its activity coefficient meets or surpasses 7.
A: Condition not met

Q: Given the entry O [water] + C[N+]1(CCCO)CCOCC1.O=S(=O)([N-]S(=O)(=O)C(F)(F)F)C(F)(F)F , answer whether its activity coefficient meets or surpasses 7.
A: Condition not met

====

# assay-remarks: activity coefficient (dimensionless); of the first substance listed, at infinite dilution; xn = mol fraction of the nth substance listed
# setup-conditions: 368.15 K; 101 kPa; Liquid; Chromatography; x1 = 0
recorded-endpoint: activity coefficient
Returns: the value as a bare number; no unit string appended.

Consider the reported activity coefficient for these molecules:
INSERT INTO results (molecule, measured) VALUES
  ('C1COCCO1 [1,4-dioxane] + C[N+]1(CCCO)CCOCC1.O=S(=O)([N-]S(=O)(=O)C(F)(F)F)C(F)(F)F', 0.859),
  ('C=C(C)c1ccccc1 [(1-methylethenyl)benzene] + C[N+]1(CCCO)CCOCC1.O=S(=O)([N-]S(=O)(=O)C(F)(F)F)C(F)(F)F', 6.65);

Q: What value of measured activity coefficient is listed for CCOCC [diethyl ether] + C[N+]1(CCCO)CCOCC1.O=S(=O)([N-]S(=O)(=O)C(F)(F)F)C(F)(F)F ?
A: 5.19

Q: What value of measured activity coefficient is listed for CC(C)CO [2-methyl-1-propanol] + C[N+]1(CCCO)CCOCC1.O=S(=O)([N-]S(=O)(=O)C(F)(F)F)C(F)(F)F ?
A: 2.54

====

# assay-remarks: activity coefficient (dimensionless); of the first substance listed, at infinite dilution; xn = mol fraction of the nth substance listed
# setup-conditions: 358.15 K; 101 kPa; Liquid; Chromatography; x1 = 0
Param threshold (10) applies to activity coefficient; output condition met when value >= threshold, condition not met when value < threshold.

Completed entries (count: 6):
INSERT INTO measurements (compound, category) VALUES
  ('Cc1cccc(C)c1 [1,3-dimethylbenzene] + C[N+]1(CCCO)CCOCC1.O=S(=O)([N-]S(=O)(=O)C(F)(F)F)C(F)(F)F', 'condition not met'),
  ('C=CCCCCCC [oct-1-ene] + C[N+]1(CCCO)CCOCC1.O=S(=O)([N-]S(=O)(=O)C(F)(F)F)C(F)(F)F', 'condition met'),
  ('CC1CCCCC1 [methylcyclohexane] + C[N+]1(CCCO)CCOCC1.O=S(=O)([N-]S(=O)(=O)C(F)(F)F)C(F)(F)F', 'condition met'),
  ('CCCCCCCC [octane] + C[N+]1(CCCO)CCOCC1.O=S(=O)([N-]S(=O)(=O)C(F)(F)F)C(F)(F)F', 'condition met'),
  ('Cc1ccccc1 [toluene] + C[N+]1(CCCO)CCOCC1.O=S(=O)([N-]S(=O)(=O)C(F)(F)F)C(F)(F)F', 'condition not met'),
  ('C#CCCCC [1-hexyne] + C[N+]1(CCCO)CCOCC1.O=S(=O)([N-]S(=O)(=O)C(F)(F)F)C(F)(F)F', 'condition met');

Q: Given the entry COC(C)(C)C [2-methoxy-2-methylpropane] + C[N+]1(CCCO)CCOCC1.O=S(=O)([N-]S(=O)(=O)C(F)(F)F)C(F)(F)F , answer whether its activity coefficient meets or surpasses 10.
A: condition not met

Q: Given the entry CCOC(C)(C)C [2-ethoxy-2-methylpropane] + C[N+]1(CCCO)CCOCC1.O=S(=O)([N-]S(=O)(=O)C(F)(F)F)C(F)(F)F , answer whether its activity coefficient meets or surpasses 10.
A: condition met

Q: Given the entry CCO [ethanol] + C[N+]1(CCCO)CCOCC1.O=S(=O)([N-]S(=O)(=O)C(F)(F)F)C(F)(F)F , answer whether its activity coefficient meets or surpasses 10.
A: condition not met

Q: Given the entry CCCCCCC [heptane] + C[N+]1(CCCO)CCOCC1.O=S(=O)([N-]S(=O)(=O)C(F)(F)F)C(F)(F)F , answer whether its activity coefficient meets or surpasses 10.
A: condition met

Q: Given the entry CCC(C)(C)OC [2-methoxy-2-methylbutane] + C[N+]1(CCCO)CCOCC1.O=S(=O)([N-]S(=O)(=O)C(F)(F)F)C(F)(F)F , answer whether its activity coefficient meets or surpasses 10.
A: condition not met

Q: Given the entry C=CCCCC [hex-1-ene] + C[N+]1(CCCO)CCOCC1.O=S(=O)([N-]S(=O)(=O)C(F)(F)F)C(F)(F)F , answer whether its activity coefficient meets or surpasses 10.
A: condition met

Q: Given the entry C=C(C)c1ccccc1 [(1-methylethenyl)benzene] + C[N+]1(CCCO)CCOCC1.O=S(=O)([N-]S(=O)(=O)C(F)(F)F)C(F)(F)F , answer whether its activity coefficient meets or surpasses 10.
A: condition not met

Q: Given the entry CCCOCCC [dipropyl ether] + C[N+]1(CCCO)CCOCC1.O=S(=O)([N-]S(=O)(=O)C(F)(F)F)C(F)(F)F , answer whether its activity coefficient meets or surpasses 10.
A: condition met

====

# assay-remarks: activity coefficient (dimensionless); of the first substance listed, at infinite dilution; xn = mol fraction of the nth substance listed
# setup-conditions: 358.15 K; 101 kPa; Liquid; Chromatography; x1 = 0
recorded-endpoint: activity coefficient
Returns: the value as a bare number; no unit string appended.

Consider the reported activity coefficient for these molecules:
INSERT INTO results (molecule, measured) VALUES
  ('C#CCCCCC [1-heptyne] + C[N+]1(CCCO)CCOCC1.O=S(=O)([N-]S(=O)(=O)C(F)(F)F)C(F)(F)F', 16.9),
  ('C=Cc1ccccc1 [styrene] + C[N+]1(CCCO)CCOCC1.O=S(=O)([N-]S(=O)(=O)C(F)(F)F)C(F)(F)F', 3.72),
  ('CCC[N+](=O)[O-] [1-nitropropane] + C[N+]1(CCCO)CCOCC1.O=S(=O)([N-]S(=O)(=O)C(F)(F)F)C(F)(F)F', 1.32),
  ('CC(C)=O [acetone] + C[N+]1(CCCO)CCOCC1.O=S(=O)([N-]S(=O)(=O)C(F)(F)F)C(F)(F)F', 0.596),
  ('CC(C)CC(C)(C)C [2,2,4-trimethylpentane] + C[N+]1(CCCO)CCOCC1.O=S(=O)([N-]S(=O)(=O)C(F)(F)F)C(F)(F)F', 140),
  ('C1COCCO1 [1,4-dioxane] + C[N+]1(CCCO)CCOCC1.O=S(=O)([N-]S(=O)(=O)C(F)(F)F)C(F)(F)F', 0.811),
  ('CCc1ccccc1 [ethylbenzene] + C[N+]1(CCCO)CCOCC1.O=S(=O)([N-]S(=O)(=O)C(F)(F)F)C(F)(F)F', 7.13),
  ('C1CCCCCCC1 [cyclooctane] + C[N+]1(CCCO)CCOCC1.O=S(=O)([N-]S(=O)(=O)C(F)(F)F)C(F)(F)F', 64.4);

Q: What value of measured activity coefficient is listed for CCC(=O)CC [pentan-3-one] + C[N+]1(CCCO)CCOCC1.O=S(=O)([N-]S(=O)(=O)C(F)(F)F)C(F)(F)F ?
A: 1.52

Q: What value of measured activity coefficient is listed for Cc1ccc(C)cc1 [1,4-dimethylbenzene] + C[N+]1(CCCO)CCOCC1.O=S(=O)([N-]S(=O)(=O)C(F)(F)F)C(F)(F)F ?
A: 6.79

Q: What value of measured activity coefficient is listed for CC(C)O [propan-2-ol] + C[N+]1(CCCO)CCOCC1.O=S(=O)([N-]S(=O)(=O)C(F)(F)F)C(F)(F)F ?
A: 1.67

Q: What value of measured activity coefficient is listed for CCCC(C)=O [pentan-2-one] + C[N+]1(CCCO)CCOCC1.O=S(=O)([N-]S(=O)(=O)C(F)(F)F)C(F)(F)F ?
A: 1.44

Q: What value of measured activity coefficient is listed for C1CCCCC1 [cyclohexane] + C[N+]1(CCCO)CCOCC1.O=S(=O)([N-]S(=O)(=O)C(F)(F)F)C(F)(F)F ?
A: 36.3

Q: What value of measured activity coefficient is listed for CC#N [acetonitrile] + C[N+]1(CCCO)CCOCC1.O=S(=O)([N-]S(=O)(=O)C(F)(F)F)C(F)(F)F ?
A: 0.545
